These data points were gathered from paper PMC3516615.

biological target: EphB2 SAM domain penta-mutant L954K/T959R/A961P/K966R/N969Y (human); assay: ITC
property-measured: Kd (µM)
Lab book: enter the figure in µM, no units written.

Which Kd is listed for SHIP2 SAM domain (wild type) (domain or fragment, human, UniProt O15357 1192-1258, looked up) RASGLGEAGMSAWLRAIGLERYEEGLVHNGWDDLEFLSDITEEDLEEAGVQDPAHKRLLLDTLQLSK ?
7.6
